Recorded values, source ChEMBL document CHEMBL4513216.

Attribute: cytotoxicity at 10 µM
# Assay Overview: Toxicity liver stage against HepG2, at 10uM
# Format: cell-based
# Set-up: test concentration 10 uM, cell line HepG2-A16-CD81EGFP
# Settings: human, HepG2-A16-CD81EGFP cells; read-out: INHIBITION
Give a bare numeral; the unit % is implied.

Request: Which cytotoxicity at 10 µM value is on record for "CCC(=O)N1CCN(C(=O)Nc2cccc(F)c2)[C@H]2CS(=O)(=O)C[C@H]21" ?
Response: -46.8

Request: Which cytotoxicity at 10 µM value is on record for "O=C(c1ncc[nH]1)N1CCC(n2cc(-c3ccccn3)nn2)CC1" ?
Response: 4.95

Request: Which cytotoxicity at 10 µM value is on record for CCNC(=O)NC(=O)C(C)N(C)CCOc1ccccc1C (stereo unspecified) ?
Response: 3.45

----------
# Assay Overview: Toxicity liver stage against HepG2, at 10uM
# Format: cell-based
# Design: test concentration 10 uM, cell line HepG2-A16-CD81EGFP
# Settings: human, HepG2-A16-CD81EGFP cells; read-out: INHIBITION
Value Kind: cytotoxicity at 10 µM
Please state the number and follow it with the unit.

{"columns": ["Compound", "cytotoxicity at 10 µM"],
 "data": [
  ["CC(C)NC(=O)CN1CCN(CC2CCOc3ccccc3C2)CC1 (stereo unspecified)", "-1.72%"],
  ["CN1CC(=O)N(c2ccsc2)CC12CCN(C(=O)c1ccc[nH]1)C2 (stereo unspecified)", "-71.8%"],
  ["COC(=O)c1cc(OCC2CCC2)cc(C(=O)N[C@@H]2CCCNC2)c1", "-3.16%"],
  ["O=C(NCCC1CCCCO1)c1coc(COc2ccc(F)cc2)n1 (stereo unspecified)", "1.1%"]
]}

Request: Which cytotoxicity at 10 µM value is on record for c1csc(CN2C[C@@H]3OCCN(CC4CCCO4)[C@@H]3C2)c1 (stereo partly specified) ?
Response: -6.31%

----------
Attribute: cytotoxicity at 10 µM
# Assay Overview: Toxicity liver stage against HepG2, at 10uM
# Assay type: cell-based
# Parameters: test concentration 10 uM, cell line HepG2-A16-CD81EGFP
# Settings: human, HepG2-A16-CD81EGFP cells; read-out: INHIBITION
Please state the number and follow it with the unit.

Answered examples (5):
{"columns": ["Compound", "cytotoxicity at 10 µM"],
 "data": [
  ["O=S(=O)(N1CCCCCC1)N1CCCN(CC2CCCO2)CC1 (configuration not stated)", "0.863%"],
  ["Cc1cnc(N2CCC3(CCN(Cc4csc(C)n4)C3=O)C2)nc1 (configuration not stated)", "-102%"],
  ["NCc1cccc(NC(=O)CCN2CCOCC2)c1", "-0.509%"],
  ["CCN(CC)S(=O)(=O)c1ccc(CNC(=O)c2cc(C)on2)cc1", "27.4%"],
  ["Cc1cc(C)cc(CN2C[C@H]3COC[C@H](N4CCN(C)CC4)[C@H]3C2)c1", "-93.7%"]
]}

Continue with the compound presented below.
Request: Which cytotoxicity at 10 µM value is on record for "CCC(CC)N(Cc1ccc2c(c1)OCO2)C(=O)c1ccc(=O)n(C)c1" ?
Response: 9.06%

----------
# Assay Overview: Toxicity liver stage against HepG2, at 10uM
# Type: cell-based
# Design: test concentration 10 uM, cell line HepG2-A16-CD81EGFP
# Settings: human, HepG2-A16-CD81EGFP cells; read-out: INHIBITION
Attribute: cytotoxicity at 10 µM
Give a bare numeral; the unit % is implied.

Answered examples (5):
{"columns": ["Compound", "cytotoxicity at 10 µM / %"],
 "data": [
  ["CCc1ccccc1OC1CN(C(=O)c2sccc2N)C1", 14.4],
  ["CN(C)c1nccc(CNS(=O)(=O)c2ccc(F)c(Cl)c2)n1", -140],
  ["CCOC(=O)C1(NCC(=O)Nc2cc(C)ccc2OC)CCCC1", 6.9],
  ["CN1CCN(Cc2nc3c(s2)CCCC3)[C@H]2CS(=O)(=O)C[C@H]21", 2.81],
  ["CCCNC(=O)NC(=O)CN(CC(C)O)c1ccccc1 (stereo unspecified)", -2.48]
]}

Continue with the compound presented below.
Request: Which cytotoxicity at 10 µM value is on record for "CC(=O)NCCc1cc2nc(-c3ccncc3)ccn2n1" ?
Response: 2.95
